Biological target: Ba/F3-FGFR1-transfected cells (Homo sapiens, UniProt P11362)
Construct: BAF3-FGFR1 (MIN IL3) pIC50; other: minus IL3
Sequence (P11362 whole entry, change not shown): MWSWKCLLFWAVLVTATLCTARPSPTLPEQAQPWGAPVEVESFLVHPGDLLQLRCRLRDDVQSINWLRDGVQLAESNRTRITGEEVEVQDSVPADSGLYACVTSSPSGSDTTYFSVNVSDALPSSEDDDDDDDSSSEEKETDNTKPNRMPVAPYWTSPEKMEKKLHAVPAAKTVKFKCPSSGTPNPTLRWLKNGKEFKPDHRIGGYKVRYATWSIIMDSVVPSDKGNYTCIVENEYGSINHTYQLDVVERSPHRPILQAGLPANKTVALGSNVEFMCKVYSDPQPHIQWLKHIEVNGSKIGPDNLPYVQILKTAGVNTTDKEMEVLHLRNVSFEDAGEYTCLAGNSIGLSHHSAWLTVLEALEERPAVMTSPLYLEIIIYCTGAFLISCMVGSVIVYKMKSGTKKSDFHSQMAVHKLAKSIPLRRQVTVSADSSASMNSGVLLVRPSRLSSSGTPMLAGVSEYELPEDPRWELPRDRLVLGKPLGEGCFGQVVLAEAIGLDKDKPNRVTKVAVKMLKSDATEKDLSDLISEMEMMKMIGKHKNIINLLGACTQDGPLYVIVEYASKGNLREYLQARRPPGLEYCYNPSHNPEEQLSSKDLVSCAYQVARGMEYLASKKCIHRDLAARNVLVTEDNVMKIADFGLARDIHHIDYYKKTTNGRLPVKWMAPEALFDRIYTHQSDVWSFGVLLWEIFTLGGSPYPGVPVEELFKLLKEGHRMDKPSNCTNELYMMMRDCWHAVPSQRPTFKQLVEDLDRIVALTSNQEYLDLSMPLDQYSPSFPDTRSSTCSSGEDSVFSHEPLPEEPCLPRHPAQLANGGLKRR
Test: Ba/F3-FGFR1 (minus IL3) cellular proliferation assay, Alamar Blue
Format: cell-based
Procedure: Ba/F3-FGFR1 (Minus IL3 or Plus IL3) (Cellular Proliferation Assay) In a 384 well plate, 100 nl of compound dilution in DMSO was sprayed before adding 50 μl cell culture medium (phenol red free RPMI-1640, 10% FBS, 2 mM L-Glutamine and 50 μg/ml Gentamycin) containing 20000 cells per well of Ba/F3-FGFR1-transfected cells. Cells were put in an incubator at 37° C. and 5% CO2. […]
Structures can show the parent of a compound that is named as a salt.
Assignment: determine reported BAF3-FGFR1 (MIN IL3) pIC50 for the given compounds.
Numbers only.

Below: 5 compounds and their reported BAF3-FGFR1 (MIN IL3) pIC50.
{"columns": ["COMPOUND", "BAF3-FGFR1 (MIN IL3) pIC50"],
 "data": [
  ["COc1cc(OC)c(F)c(N(CC(O)COC(C)C)c2ccc3ncc(-c4cnn(CC(O)COC(C)C)c4)nc3n2)c1 (single isomer, unassigned) [Compound 252]", 7.14],
  ["COc1cc(OC)c(F)c(N(CC2CCC(=O)N2)c2ccc3ncc(-c4cnn(C)c4)nc3n2)c1 (stereo not drawn) [Compound 46]", 7.33],
  ["COc1cc(OC)cc(N(Cc2n[nH]c(=O)o2)c2ccc3ncc(-c4cnn(C)c4)nc3n2)c1 [Compound 229]", 5.97],
  ["COc1cc(OC)c(F)c(N(CCO)c2ccc3ncc(-c4cnn(C)c4)nc3n2)c1 [Compound 40]", 7.80],
  ["COc1cc(/N=c2\\ccc3ncc(-c4cnn(C)c4)nc3n2Cc2ccnn2C)c(F)c(OC)c1 [Compound 114]", 7.63]
]}

The following compounds each have a reported value; give each one's BAF3-FGFR1 (MIN IL3) pIC50.
1. COc1cc(OC)c(F)c(N(Cc2ncc[nH]2)c2ccc3ncc(N4C[C@@H](C)N[C@@H](C)C4)nc3n2)c1 [Compound 259]
2. COc1ccc(Cl)c(/N=c2\ccc3ncc(-c4cnn(C)c4)nc3n2CC2CCC(=O)N2)c1Cl (single isomer, unassigned) [Compound 89]
3. COc1cc(/N=c2\ccc3ncc(-c4cnn(C)c4)nc3n2CC2CCC(=O)N2)cc(OC)c1 (stereo not drawn) [Compound 248]
4. COc1cc(OC)c(F)c(N(CC2CCC(=O)N2)c2ccc3ncc(-c4cnn(C)c4)nc3n2)c1F (stereo not drawn) [Compound 48]

1. 7.33
2. 5.18
3. 6.70
4. 8.00

The following compounds each have a reported value; give each one's BAF3-FGFR1 (MIN IL3) pIC50.
1. COc1cc(OC)c(F)c(N(CC(=O)O)c2ccc3ncc(-c4cnn(C)c4)nc3n2)c1 [Compound 231]
2. COc1cc(OC)cc(N(Cc2ncn(CCO)n2)c2ccc3ncc(-c4cnn(C)c4)nc3n2)c1 [Compound 205]
3. COc1cc(OC)c(F)c(N(Cc2cnn(C)c2)c2ccc3ncc(-c4cnn(C)c4)nc3n2)c1 [Compound 195]
4. COc1ccc(Cl)c(N(CC2CCC(=O)N2)c2ccc3ncc(-c4cnn(C)c4)nc3n2)c1Cl (single isomer, unassigned) [Compound 91]
5. COc1cc(OC)cc(N(c2ccc3ncc(-c4cnn(C)c4)nc3n2)C(C)c2ncc[nH]2)c1 (stereo not drawn) [Compound 280]
6. COc1cc(/N=c2\ccc3ncc(-c4cnn(C)c4)nc3n2CCN)c(F)c(OC)c1 [Compound 167]
7. COc1cc(OC)c(F)c(N(Cc2ncc[nH]2)c2ccc3ncc(-c4cnn(C)c4)nc3n2)c1 [23-lactate salt]
8. CNCCn1/c(=N/c2c(F)ccc(OC)c2Cl)ccc2ncc(-c3cnn(C)c3)nc21 [Compound 70]

1. 5.27
2. 6.31
3. 8.08
4. 5.13
5. 8.64
6. 6.74
7. 8.29
8. 5.75

Field request: BAF3-FGFR1 (MIN IL3) pIC50 | item: COc1cc(OC)c(F)c(N(Cc2ncccn2)c2ccc3ncc(-c4cnn(C)c4)nc3n2)c1F [Compound 11]
7.4

The measurements presented in this section are drawn from patent US9309242B2.
